# target: LRRK2(G2019S mutation, GST-LRRK2(amino acids 970-2527)) (Homo sapiens, UniProt Q5S007, G2019S)
# Construct: GST-LRRK2(amino acids 970-2527); GST (N); purchased Life Technologies Corporation
# Sequence (Q5S007 970-2527 G2019S): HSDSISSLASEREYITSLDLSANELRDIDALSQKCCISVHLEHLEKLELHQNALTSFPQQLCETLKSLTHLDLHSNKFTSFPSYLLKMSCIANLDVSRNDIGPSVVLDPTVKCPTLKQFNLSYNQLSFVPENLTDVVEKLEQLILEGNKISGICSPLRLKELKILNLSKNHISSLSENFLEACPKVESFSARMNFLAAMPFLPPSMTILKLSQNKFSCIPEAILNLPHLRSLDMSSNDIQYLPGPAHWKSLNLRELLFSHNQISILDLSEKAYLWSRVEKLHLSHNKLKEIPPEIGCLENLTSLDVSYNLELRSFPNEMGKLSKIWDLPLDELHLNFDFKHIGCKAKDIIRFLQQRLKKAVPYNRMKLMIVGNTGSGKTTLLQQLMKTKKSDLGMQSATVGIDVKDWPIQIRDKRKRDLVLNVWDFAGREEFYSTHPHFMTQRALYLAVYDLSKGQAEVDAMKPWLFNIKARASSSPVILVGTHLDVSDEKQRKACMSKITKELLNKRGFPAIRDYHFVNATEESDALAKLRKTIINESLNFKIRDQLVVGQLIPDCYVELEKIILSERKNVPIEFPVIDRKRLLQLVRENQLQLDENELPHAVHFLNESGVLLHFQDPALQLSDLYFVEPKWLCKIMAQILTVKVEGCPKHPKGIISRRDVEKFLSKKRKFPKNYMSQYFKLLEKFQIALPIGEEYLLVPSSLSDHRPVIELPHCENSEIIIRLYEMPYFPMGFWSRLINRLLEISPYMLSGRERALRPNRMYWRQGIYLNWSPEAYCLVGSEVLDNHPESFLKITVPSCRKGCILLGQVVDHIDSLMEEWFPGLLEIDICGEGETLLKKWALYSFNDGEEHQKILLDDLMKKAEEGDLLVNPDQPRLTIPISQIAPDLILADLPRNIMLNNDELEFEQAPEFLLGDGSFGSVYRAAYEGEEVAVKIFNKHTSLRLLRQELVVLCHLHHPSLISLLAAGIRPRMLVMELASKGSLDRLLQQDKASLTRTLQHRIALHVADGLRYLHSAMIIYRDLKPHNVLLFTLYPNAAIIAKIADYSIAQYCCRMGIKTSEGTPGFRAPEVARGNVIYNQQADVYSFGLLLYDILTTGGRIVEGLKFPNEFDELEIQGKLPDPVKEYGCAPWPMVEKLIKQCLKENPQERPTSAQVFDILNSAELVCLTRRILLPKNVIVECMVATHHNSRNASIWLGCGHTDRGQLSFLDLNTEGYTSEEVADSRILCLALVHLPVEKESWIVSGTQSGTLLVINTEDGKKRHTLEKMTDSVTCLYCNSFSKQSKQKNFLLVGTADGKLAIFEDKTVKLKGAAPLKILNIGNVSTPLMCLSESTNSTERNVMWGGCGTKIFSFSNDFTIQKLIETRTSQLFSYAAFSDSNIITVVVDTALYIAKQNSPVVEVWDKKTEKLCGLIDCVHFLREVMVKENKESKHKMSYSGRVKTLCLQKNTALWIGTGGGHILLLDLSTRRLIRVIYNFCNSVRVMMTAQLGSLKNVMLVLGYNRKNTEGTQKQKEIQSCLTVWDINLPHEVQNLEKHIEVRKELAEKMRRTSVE
# protocol_summary: LRRK2 Km ATP LanthaScreen Assay
# Assay type: biochemical
# condition_parameters: Km ATP LanthaScreen Assay; LRRK2 G2019S; mean IC50 values; read-out: LRRK2 IC50
Catalogue of IC50 readings, one per entry.
Write the value in nM as a bare number.

[in] Please list IC50 recorded for the compound COC1CN(Cc2ccc3[nH]nc(-c4ccnc(N5CCOCC5)c4)c3c2)C1 [Example 91]
[out] 161

[in] Please list IC50 recorded for the compound c1cc(-c2n[nH]c3ccc(CN4CCCCC4)cc23)cc(N2CCOCC2)n1 [Example 88]
[out] 164

[in] Please list IC50 recorded for the compound c1ccc2c(-c3ccnc(N4CCCCCC4)c3)n[nH]c2c1 [Example 2]
[out] 76

[in] Please list IC50 recorded for the compound CN(C)CCC(Nc1cc(-c2n[nH]c3ccccc23)ccn1)c1ccccn1 (centres unmarked) [Example 45]
[out] 72

[in] Please list IC50 recorded for the compound CN1CCC(O)(CNc2cc(-c3n[nH]c4ccccc34)ccn2)CC1 [Example 47]
[out] 63

###

# target: LRRK2(G2019S mutation, GST-LRRK2(amino acids 970-2527)) (Homo sapiens, UniProt Q5S007, G2019S)
# Construct: GST-LRRK2(amino acids 970-2527); GST (N); purchased Life Technologies Corporation
# protocol_summary: LRRK2 Km ATP LanthaScreen Assay
# Assay type: biochemical
# condition_parameters: Km ATP LanthaScreen; mean IC50 of several tests; read-out: LRRK2 IC50
reported_metric: pIC50
In simple prose, pIC50 is minus the logarithm base ten of a concentration in moles per litre.

[in] Please list pIC50 recorded for the compound OCCOc1ccc2[nH]nc(-c3ccnc(N4CCOCC4)c3)c2c1 [Example 363]
[out] 8.03

[in] Please list pIC50 recorded for the compound CCCOc1ccc2[nH]nc(-c3ccnc(N4CCN(S(C)(=O)=O)CC4)c3)c2c1 [Example 295]
[out] 7.77

[in] Please list pIC50 recorded for the compound c1cc(-c2ccc3[nH]nc(-c4ccnc(N5CCOCC5)c4)c3c2)ccn1 [Example 97]
[out] 7.86
